# Tested on: ATP;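 note: ATP exposure 15 min at 22 °C before imaging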
# TEST_SUMMARY: switch fluorescence ratio, 500 uM ATP over buffer (Cy3 cluster intensity, sum of 5 cycles each) (fold (ratio)); higher = stronger signal-on switching upon ATP binding; sequences stand for … in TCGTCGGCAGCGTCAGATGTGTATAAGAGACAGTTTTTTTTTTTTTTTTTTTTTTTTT…TC
# CONDITION_CONTEXT: aptamer strand: ATP DNA aptamer (quencher-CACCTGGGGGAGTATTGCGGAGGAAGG + anchor), 100 nM annealed; ATP concentration: 500 uM
ENDPOINT_NAME: switch fluorescence ratio
API doc: respond with a numeric literal and nothing else, no unit.

Request: Query (sequence): TAGATGATGT ; field requested: switch fluorescence ratio
Result: 1

Request: How about this sequence: AAAACGAGTG
Result: 1.02

Request: How about this sequence: AGTGTATTGA
Result: 1

Request: How about this sequence: ATAAAGAGGC
Result: 0.978

Request: How about this sequence: AAAGGATCGT
Result: 1.01

Request: How about this sequence: TACTGGGGTA
Result: 1.02

Request: How about this sequence: GAAAATAGGT
Result: 0.99

Request: How about this sequence: TCTGGGTGGT
Result: 0.977

Request: How about this sequence: GGATTGTGAG
Result: 0.987

Request: How about this sequence: CGGGAGGGAA
Result: 1.02

Request: How about this sequence: ATTGATTAGG
Result: 0.988

Request: How about this sequence: GGACTTGGTT
Result: 1.01

Request: How about this sequence: CAGTCAGAGT
Result: 0.985

----------
# Lookup of reported switch fluorescence ratio keyed by entry
# Test system: ATP;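 note: ATP exposure 15 min at 22 °C before imaging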
# TEST_SUMMARY: switch fluorescence ratio, 500 uM ATP over buffer (Cy3 cluster intensity, sum of 5 cycles each) (fold (ratio)); higher = stronger signal-on switching upon ATP binding; sequences stand for … in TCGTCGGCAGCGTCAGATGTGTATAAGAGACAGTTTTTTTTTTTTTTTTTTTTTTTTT…TC
# CONDITION_CONTEXT: aptamer strand: ATP DNA aptamer (quencher-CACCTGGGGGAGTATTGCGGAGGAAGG + anchor), 100 nM annealed; ATP concentration: 500 uM
API doc: respond with a numeric literal and nothing else, no unit.

AGCGTGTGCG ... 0.989

Consider now this further sequence.
Request: Notebook: pull reported switch fluorescence ratio for ATP, entry TGGGGCAAAC
Result: 1.87

----------
# Test system: ATP;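 note: ATP exposure 15 min at 22 °C before imaging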
# TEST_SUMMARY: switch fluorescence ratio, 500 uM ATP over buffer (Cy3 cluster intensity, sum of 5 cycles each) (fold (ratio)); higher = stronger signal-on switching upon ATP binding; sequences stand for … in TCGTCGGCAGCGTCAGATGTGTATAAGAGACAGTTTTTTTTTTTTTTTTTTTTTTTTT…TC
# CONDITION_CONTEXT: aptamer strand: ATP DNA aptamer (quencher-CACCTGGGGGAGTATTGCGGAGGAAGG + anchor), 100 nM annealed; ATP concentration: 500 uM
ENDPOINT_NAME: switch fluorescence ratio
API doc: respond with a numeric literal and nothing else, no unit.

In the examples that follow, each entry is paired with its recorded switch fluorescence ratio.
TTTAAGTCT ... 0.984
TCTATGGCTA ... 1.03
ACACCCGCGC ... 1.45
TACTTTATTT ... 1.16
TTTTGAACCC ... 0.984

Request: Query (sequence): TTTTTAGAGA ; field requested: switch fluorescence ratio
Result: 0.991

Request: How about this sequence: TGCCTAAGAT
Result: 1

Request: How about this sequence: CTCATAGCGC
Result: 1.02

Request: How about this sequence: TTGGACTATA
Result: 1.02

Request: How about this sequence: TAGCATCTTT
Result: 0.98

Request: How about this sequence: AAAAATTAAG
Result: 1.03
